- target or test system: T1, Goat anti-Human Kappa
- T1 construct: Positive control; also called biotinylated goat anti-human kappa light chain
- run description: ELISA; positive control; also: test concentration or dose not given here
test readout: optical density (OD)
A number alone suffices; assume OD.

368_F06 (antibody, V domains shown, VH/VL only) VH: EVQLLESGGGLVQPGGSLRLSCAASGFTFDDYSMHWVRQAPGKGLEWVANINYNSGYTGYADSVKGRFTISRDNSKNTLYLQMNSLRAEDTAVYYCARGATWHDTHLDYWGQGTLVTVSS VL: DIQMTQSPSSLSASVGDRVTITCRASQSILSYLNWYQQKPGKAPKLVIYATTSRASGVPSRFSGSGSGTDFTLTISSLQPEDFATYYCQQSYENPLTFGGGTKVEIK = 3.31
370_D09 (antibody, V domains shown, VH/VL only) VH: EVQLLESGGGLVQPGGSLRLSCAASGFTFSDYSMNWVRQAPGKGLEWVSGINYNSGYTSYADSVKGRFTISRDNSKNTLYLQMNSLRAEDTAVYYCARGATWHDTHLDYWGQGTLVTVSS VL: DIQMTQSPSSLSASVGDRVTITCRASQSIVTYLNWYQQKPGKAPKLVIYAATSRASGVPSRFSGSGSGTDFTLTISSLQPEDFATYYCQQSYDTPLTFGGGTKVEIK = 3.48

Okay, next one:
Supply optical density value. Item: 365_B11 (antibody, V domains shown, VH/VL only) VH: EVQLLESGGGLVQPGGSLRLSCAASGFTFSSYGMHWVRQAPGKGLEWVAGINYNGGYTSYADSVKGRFTISRDNSKNTLYLQMNSLRAEDTAVYYCARSANWHDTALDYWGQGTLVTVSS VL: DIQMTQSPSSLSASVGDRVTITCRASQSIISYLNWYQQKPGKAPKLVIYATTSRHSGVPSRFSGSGSGTDFTLTISSLQPEDFATYYCQQSYDSPLTFGGGTKVEIK
3.58
